Value source: patent US20260053834A1

# Tested on: LAPC4 prostate cancer cells, which express the AKT1 E17K allele
# Experimental Protocol: Antiproliferative effects in LAPC4 cells (CellTiter Glo, 72 h)
# Format: cell-based
# Test Parameters: Homo sapiens, LAPC4, 72 h, read-out: LAPC4 proliferation IC50: GeoMean IC50
pIC50: −log10 of the molar value.
Outcome Measure: pIC50

# Compound, pIC50
measured = [
    ("CN1CC(n2ccc(-c3ccc4nc(-c5cccnc5N)n(-c5ccc6c(c5)CC[C@@H]6NC(=O)c5ccc(O)c(C=O)c5)c4n3)n2)C1 [Example 165]", "5.70 to 7.00"),
    ("Cn1ncc(-c2ccc3nc(-c4cccnc4N)n(-c4ccc5c(c4)CC[C@@H]5NC(=O)c4ccc(O)c(C=O)c4)c3n2)n1 [Example 120]", "7.00 to 8.00"),
    ("C#Cc1ccn(-c2ccc3nc(-c4cccnc4N)n(-c4ccc5c(c4)CC[C@@H]5NC(=O)c4ccc(O)c(C=O)c4)c3n2)n1 [Example 119]", "7.00 to 8.00"),
    ("Nc1ncccc1-c1nc2ccc(-n3cccn3)nc2n1-c1ccc2c(c1)CC[C@@H]2NC(=O)Cc1ccc(C=O)c(O)c1F [Example 216, trifluoroacetic acid]", "5.70 to 7.00"),
]

Input line: Fill in the blank: the reported pIC50 of Cc1ccc2nc(-c3cccnc3N)n(-c3ccc4c(c3)CC[C@@H]4NC(=O)c3cc(F)c(O)c(C=O)c3)c2n1 [Example 44] is ____.
Output line: 5.70 to 7.00

Input line: For the compound shown here, Nc1ncccc1-c1nc2ccc(-n3cccn3)nc2n1-c1ccc2c(c1)CC[C@@H]2NC(=O)c1cc(C=O)c(O)c2scnc12 [Example 242] , give the reported pIC50.
Output line: 5.70 to 7.00

Input line: Quick one: pIC50 for Nc1ncccc1-c1nc2ccc(Cl)nc2n1-c1ccc2c(c1)CC[C@@H]2NC(=O)c1ccc(O)c(C=O)c1 [Example 136] ?
Output line: 5.70 to 7.00

Input line: Which pIC50 is reported for this compound? Cc1ccc2nc(-c3cccnc3N)n(-c3ccc4c(c3)CC[C@@H]4NC(=O)c3ccc(O)c(C=O)c3)c2n1 [Example 13]
Output line: 5.70 to 7.00

Input line: For N#Cc1ccc2nc(-c3cccnc3N)n(-c3ccc4c(c3)CC[C@@H]4NC(=O)c3ccc(O)c(C=O)c3)c2n1 [Example 79] , what is its reported pIC50?
Output line: ≤ 5.70

Input line: Which pIC50 is listed for Nc1ncccc1-c1nc2ccc(-c3ccccc3)nc2n1-c1ccc2c(c1)CC[C@@H]2NC(=O)c1cc(C=O)c(O)c(Cl)n1 [Example 176] ?
Output line: 5.70 to 7.00

Input line: Form field: reported pIC50 of Nc1ncccc1-c1nc2ccc(-n3cccn3)nc2n1-c1ccc2c(c1)CC[C@@H]2N1Cc2cc(O)c(C=O)cc2C1=O [Example 208]
Output line: ≤ 5.70

Input line: Look up pIC50: Cc1cc(-n2ccc(F)n2)nc2c1nc(-c1cccnc1N)n2-c1ccc2c(c1)CC[C@@H]2NC(=O)c1cc(C=O)c(O)c(F)c1F [Example 199]
Output line: 5.70 to 7.00

Input line: Sample Nc1ncccc1-c1nc2ccc(-c3nccs3)nc2n1-c1ccc2c(c1)CC[C@@H]2NC(=O)c1cc(F)c(O)c(C=O)c1 [Example 130] — what was its pIC50?
Output line: 7.00 to 8.00
